// data source = patent US11945784B2

Please go through the items and note down their EC50.
Target: IRE1α (Homo sapiens (Human), UniProt O75460)
Sequence (O75460 19-977): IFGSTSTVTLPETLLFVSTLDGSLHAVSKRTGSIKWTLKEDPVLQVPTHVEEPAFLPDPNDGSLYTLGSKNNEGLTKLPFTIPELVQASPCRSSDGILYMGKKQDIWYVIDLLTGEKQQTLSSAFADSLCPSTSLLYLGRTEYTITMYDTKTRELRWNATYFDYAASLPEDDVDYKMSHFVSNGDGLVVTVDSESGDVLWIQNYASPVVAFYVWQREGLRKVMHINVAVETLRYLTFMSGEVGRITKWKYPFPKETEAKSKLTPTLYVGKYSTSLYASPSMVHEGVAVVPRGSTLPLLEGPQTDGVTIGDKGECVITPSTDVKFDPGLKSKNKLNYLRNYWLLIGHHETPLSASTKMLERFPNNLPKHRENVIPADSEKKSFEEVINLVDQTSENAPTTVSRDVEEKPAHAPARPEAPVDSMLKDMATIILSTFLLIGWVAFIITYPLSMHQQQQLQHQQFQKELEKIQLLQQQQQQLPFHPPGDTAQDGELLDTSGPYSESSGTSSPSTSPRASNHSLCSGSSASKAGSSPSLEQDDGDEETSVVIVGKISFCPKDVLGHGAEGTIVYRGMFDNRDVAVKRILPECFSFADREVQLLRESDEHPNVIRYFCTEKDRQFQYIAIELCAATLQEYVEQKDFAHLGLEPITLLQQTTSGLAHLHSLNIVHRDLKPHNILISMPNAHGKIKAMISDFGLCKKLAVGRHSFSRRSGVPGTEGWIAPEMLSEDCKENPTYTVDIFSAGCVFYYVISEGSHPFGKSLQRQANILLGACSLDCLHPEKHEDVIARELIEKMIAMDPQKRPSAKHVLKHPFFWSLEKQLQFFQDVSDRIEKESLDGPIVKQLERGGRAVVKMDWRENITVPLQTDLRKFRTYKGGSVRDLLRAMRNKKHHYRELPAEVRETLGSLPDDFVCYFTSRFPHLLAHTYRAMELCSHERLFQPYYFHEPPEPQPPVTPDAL
Experiment: In vitro luciferase assay (IRE1α Endoribonuclease Nanoluciferase Assay)
Conditions: 293T cells, XBP1 luciferase reporter

Reported EC50 for IRE1α (Homo sapiens (Human), UniProt O75460), given COc1nc(NS(=O)(=O)c2ccc(F)cc2Cl)ccc1/C=C/c1cnc(NC2CCC(N(C)C)CC2)nc1 (stereo not drawn) ?
≤ 5 nM

Again, but for CNC1CCC(Nc2ncc(C=Cc3ccc(NS(=O)(=O)c4ccccc4Cl)nc3C)cn2)CC1 (stereo not drawn)
5 to 50 nM

Again, but for CCc1nc(NS(=O)(=O)c2ccccc2Cl)ccc1C=Cc1cnc(NC2CCC(N)CC2)nc1 (stereo not drawn)
5 to 50 nM

Again, but for COc1nc(NS(=O)(=O)c2ccccc2Cl)c(F)cc1/C=C/c1cnc(NC2CCC(N)CC2)nc1 (stereo not drawn)
50 to 100 nM

Again, but for NC1CCC(Nc2ncc(CCc3ccc(NS(=O)(=O)c4ccccc4Cl)c(F)c3)cn2)CC1 (stereo not drawn)
100 to 10000 nM

Again, but for NC1CCC(Nc2ncc(/C=C/c3ccc(NS(=O)(=O)c4ccccc4Cl)c(F)c3)cn2)CC1 (stereo not drawn)
≤ 5 nM

Again, but for Cc1nc(NS(=O)(=O)c2ccccc2Cl)c(F)cc1/C=C/c1cnc(NC2CCC(N(C)C)CC2)nc1 (stereo not drawn) [Compound 22]
≤ 5 nM

Again, but for CN(C)C1CCC(Nc2ncc(/C=C/c3ccc(NS(=O)(=O)c4ccc(F)cc4Cl)nc3)cn2)CC1 (stereo not drawn)
≤ 5 nM

Again, but for Cc1nc(NS(=O)(=O)c2ccc(F)cc2Cl)ccc1/C=C/c1cnc(NC2CCC(N(C)C)CC2)nc1 (stereo not drawn)
≤ 5 nM

Again, but for Cc1cc(NS(=O)(=O)c2ccccc2Cl)cc(F)c1/C=C/c1cnc(NC2CCC(N(C)C)CC2)nc1 (stereo not drawn)
≤ 5 nM

Again, but for CN(C)C1CCC(Nc2ncc(/C=C/c3ccc(NS(=O)(=O)c4cccc(F)c4Cl)nc3)cn2)CC1 (stereo not drawn)
≤ 5 nM

Again, but for COc1nc(NS(=O)(=O)c2cccc(F)c2Cl)ccc1/C=C/c1cnc(NC2CCC(N(C)C)CC2)nc1 (single isomer, unassigned) [Compound 39]
≤ 5 nM

Again, but for Cc1nc(NS(=O)(=O)c2ccccc2Cl)c(F)cc1/C=C/c1cnc(NC2CCC(N(C)C)CC2)nc1 (stereo not drawn) [Compound 25]
5 to 50 nM

Again, but for COc1nc(NS(=O)(=O)c2ccccc2Cl)ccc1/C=C/c1cnc(NC2CCC(N)CC2)nc1 (stereo not drawn)
≤ 5 nM

Again, but for CNC1CCC(Nc2ncc(/C=C/c3ccc(NS(=O)(=O)c4ccccc4Cl)nc3OC)cn2)CC1 (stereo not drawn)
≤ 5 nM
